Reference for the values: patent EP4640235A1

- target: T1, human CAPRIN-1 protein expressed on cell membrane surfaces of human cancer cells (human, UniProt Q14444 2-709)
- T1 construct: whole, on cells; Endogenous protein on human cancer cells; Flow cytometry was done without permeation of the cell membranes
- T1 sequence (looked up): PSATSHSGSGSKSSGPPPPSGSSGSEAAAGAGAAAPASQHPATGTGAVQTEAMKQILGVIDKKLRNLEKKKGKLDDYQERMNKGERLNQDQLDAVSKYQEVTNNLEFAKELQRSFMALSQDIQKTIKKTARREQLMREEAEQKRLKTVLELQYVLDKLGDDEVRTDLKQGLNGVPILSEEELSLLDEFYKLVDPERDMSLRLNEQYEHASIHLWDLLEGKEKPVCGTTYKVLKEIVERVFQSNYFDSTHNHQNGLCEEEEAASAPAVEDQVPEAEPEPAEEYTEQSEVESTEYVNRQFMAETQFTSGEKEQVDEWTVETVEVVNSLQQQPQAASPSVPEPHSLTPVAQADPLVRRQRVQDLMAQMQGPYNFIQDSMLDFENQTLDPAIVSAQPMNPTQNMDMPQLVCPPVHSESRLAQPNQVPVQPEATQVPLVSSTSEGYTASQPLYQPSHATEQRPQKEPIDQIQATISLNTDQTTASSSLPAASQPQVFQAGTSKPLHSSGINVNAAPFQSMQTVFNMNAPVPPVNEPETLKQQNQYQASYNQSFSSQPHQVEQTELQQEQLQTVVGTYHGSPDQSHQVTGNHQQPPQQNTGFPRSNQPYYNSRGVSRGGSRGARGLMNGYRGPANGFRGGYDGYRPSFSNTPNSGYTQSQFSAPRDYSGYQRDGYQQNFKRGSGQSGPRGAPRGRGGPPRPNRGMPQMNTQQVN
- procedure details: flow cytometry on cancer cells
metric name: binding result

INSERT INTO assay_data (binder, metric_name, result) VALUES
  ('anti-CAPRIN-1 antibody (ak) (antibody, V domains shown) VH: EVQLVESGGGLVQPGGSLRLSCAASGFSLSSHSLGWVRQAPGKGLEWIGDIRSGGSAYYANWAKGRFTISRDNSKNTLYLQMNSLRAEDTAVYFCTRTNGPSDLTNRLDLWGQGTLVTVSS VL: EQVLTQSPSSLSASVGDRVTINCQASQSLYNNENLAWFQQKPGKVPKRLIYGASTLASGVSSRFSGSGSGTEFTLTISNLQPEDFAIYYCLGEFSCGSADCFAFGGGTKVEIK', 'binding result', 'binds'),
  ('anti-CAPRIN-1 antibody (ag) (antibody, V domains shown) VH: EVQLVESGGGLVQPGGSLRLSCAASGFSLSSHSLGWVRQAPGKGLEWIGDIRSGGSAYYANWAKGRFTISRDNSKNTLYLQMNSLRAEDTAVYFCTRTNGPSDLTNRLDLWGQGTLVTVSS VL: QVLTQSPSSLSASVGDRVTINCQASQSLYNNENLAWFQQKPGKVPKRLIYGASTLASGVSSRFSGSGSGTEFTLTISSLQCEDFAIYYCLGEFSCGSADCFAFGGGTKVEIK', 'binding result', 'binds'),
  ('anti-CAPRIN-1 antibody (j) (antibody, V domains shown) VH: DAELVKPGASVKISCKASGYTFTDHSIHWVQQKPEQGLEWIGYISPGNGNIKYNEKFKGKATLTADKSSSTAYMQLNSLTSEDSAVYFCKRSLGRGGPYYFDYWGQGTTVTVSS VL: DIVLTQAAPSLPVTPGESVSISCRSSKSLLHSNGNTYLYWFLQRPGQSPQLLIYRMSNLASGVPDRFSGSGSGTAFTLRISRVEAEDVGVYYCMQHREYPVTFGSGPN', 'binding result', 'binds');
